Ref: ChEMBL document CHEMBL1154732

In this section, each of the compounds is paired with its reported GI50.
Tested on: MDA-MB-231
Assay: Cytotoxicity against human MDA-MB-231 cells after 48 hrs by SRB assay in presence of 3.5 uM 4-(2-chloro-10H-phenoxazin-10-yl)-N,N-diethylbutan-1-amine hydrochloride
Format: functional
Details: MDA-MB-231, 48 h
Field: numeric (nM). Do not append units.

CCN(CC)CCCC(C)Nc1ccnc2cc(Cl)ccc12 (stereo unspecified) [CHLOROQUINE PHOSPHATE] = 6080

Look up GI50: CN(C)CCNc1ccnc2cc(F)ccc12 2000

Look up GI50: CN(C)CCNc1ccnc2cc(Cl)ccc12 740

Look up GI50: COc1ccc2c(NCCN(C)C)ccnc2c1 1240

Look up GI50: CCCCNc1ccnc2cc(Cl)ccc12 6500

Look up GI50: CCCCNc1ccnc2cc(F)ccc12 3740

----------
Tested on: MDA-MB-231
Assay: Cytotoxicity against human MDA-MB-231 cells after 48 hrs by SRB assay in presence of 0.5 uM 2-morpholino-8-phenyl-4H-chromen-4-one
Assay type: functional
Settings: MDA-MB-231, 48 h
PARAMETER: GI50 (µM)
Field: numeric (µM). Do not append units.

CCN(CC)CCCC(C)Nc1ccnc2cc(Cl)ccc12 (stereo unspecified) [CHLOROQUINE PHOSPHATE] = 18.8
COc1ccc2c(NCCN(C)C)ccnc2c1 = 9.45
CN(C)CCNc1ccnc2cc(Cl)ccc12 = 9.88
CCCCNc1ccnc2cc(Cl)ccc12 = 11.3
CCCCNc1ccnc2cc(F)ccc12 = 12.3

Look up GI50: CN(C)CCNc1ccnc2cc(F)ccc12 9.45

----------
Assay: Cytotoxicity against human 184B5 cells after 48 hrs by SRB assay in presence of 0.04 uM (E)-5-(benzo[d]thiazol-2-yl)-3-ethyl-2-(2-(methyl(phenyl)amino)vinyl)-1-phenyl-1H-benzo[d]imidazol-3-ium iodide
Assay type: functional
Details: 184B5, 48 h
In this section, each of the compounds is paired with its reported GI50.

COc1ccc2c(NCCN(C)C)ccnc2c1 = > 20 µM

Look up GI50: CN(C)CCNc1ccnc2cc(F)ccc12 > 20 µM

Look up GI50: CCCCNc1ccnc2cc(F)ccc12 12.4 µM

Look up GI50: CCN(CC)CCCC(C)Nc1ccnc2cc(Cl)ccc12 (stereo unspecified) [CHLOROQUINE PHOSPHATE] > 20 µM

Look up GI50: CN(C)CCNc1ccnc2cc(Cl)ccc12 > 20 µM

Look up GI50: CCCCNc1ccnc2cc(Cl)ccc12 > 20 µM

----------
System: MCF7
Test: Cytotoxicity against human MCF7 cells after 48 hrs by SRB assay in presence of 0.04 uM (E)-5-(benzo[d]thiazol-2-yl)-3-ethyl-2-(2-(methyl(phenyl)amino)vinyl)-1-phenyl-1H-benzo[d]imidazol-3-ium iodide
Format: functional
Conditions: MCF7, 48 h
Mark MET for GI50 under 5 µM, NOT MET if at or over.

Consider the following illustrative entries.
CN(C)CCNc1ccnc2cc(F)ccc12 = MET
COc1ccc2c(NCCN(C)C)ccnc2c1 = MET
CCCCNc1ccnc2cc(F)ccc12 = NOT MET

Determine whether this compound shows GI50 lower than 5 µM (ties excluded): CCN(CC)CCCC(C)Nc1ccnc2cc(Cl)ccc12 (stereo unspecified) [CHLOROQUINE PHOSPHATE] NOT MET

Determine whether this compound shows GI50 lower than 5 µM (ties excluded): CCCCNc1ccnc2cc(Cl)ccc12 NOT MET

----------
Test system: MDA-MB-468
Assay: Cytotoxicity against human MDA-MB-468 cells after 48 hrs by SRB assay in presence of 3.5 uM 4-(2-chloro-10H-phenoxazin-10-yl)-N,N-diethylbutan-1-amine hydrochloride
Assay type: functional
Settings: MDA-MB-468, 48 h
Mark met for GI50 under 4 µM, not met if at or over.

Determine whether this compound shows GI50 lower than 4 µM (ties excluded): CCCCNc1ccnc2cc(F)ccc12 met

Determine whether this compound shows GI50 lower than 4 µM (ties excluded): COc1ccc2c(NCCN(C)C)ccnc2c1 not met

Determine whether this compound shows GI50 lower than 4 µM (ties excluded): CN(C)CCNc1ccnc2cc(Cl)ccc12 met

----------
System: MDA-MB-468
Test: Cytotoxicity against human MDA-MB-468 cells after 48 hrs by SRB assay in presence of 0.4 uM 1-(1-(4-(7-phenyl-1H-imidazo[4,5-g]quinoxalin-6-yl)benzyl)piperidin-4-yl)-1H-benzo[d]imidazol-2(3H)-one
Type: functional
In this section, each of the compounds is paired with its reported GI50.
Field: numeric (µM). Do not append units.

Examples from the recorded data:
CN(C)CCNc1ccnc2cc(Cl)ccc12 = 6.5
CN(C)CCNc1ccnc2cc(F)ccc12 = 4.95
CCCCNc1ccnc2cc(F)ccc12 = 2.09
CCN(CC)CCCC(C)Nc1ccnc2cc(Cl)ccc12 (stereo unspecified) [CHLOROQUINE PHOSPHATE] = 6.83
COc1ccc2c(NCCN(C)C)ccnc2c1 = 5.91

Moving on to another compound below.
Observed GI50 on MDA-MB-468 for CCCCNc1ccnc2cc(Cl)ccc12 , please. 7.09

----------
Tested on: MDA-MB-231
Assay: Cytotoxicity against human MDA-MB-231 cells after 48 hrs by SRB assay in presence of 0.04 uM (E)-5-(benzo[d]thiazol-2-yl)-3-ethyl-2-(2-(methyl(phenyl)amino)vinyl)-1-phenyl-1H-benzo[d]imidazol-3-ium iodide
Type: functional
Conditions: MDA-MB-231, 48 h
Mark 1 for GI50 under 7 µM, 0 if at or over.

Consider the following illustrative entries.
CN(C)CCNc1ccnc2cc(Cl)ccc12 = 1
CN(C)CCNc1ccnc2cc(F)ccc12 = 1
CCCCNc1ccnc2cc(Cl)ccc12 = 0
CCN(CC)CCCC(C)Nc1ccnc2cc(Cl)ccc12 (stereo unspecified) [CHLOROQUINE PHOSPHATE] = 0
COc1ccc2c(NCCN(C)C)ccnc2c1 = 1

Moving on to another compound below.
Determine whether this compound shows GI50 lower than 7 µM (ties excluded): CCCCNc1ccnc2cc(F)ccc12 0

----------
In this section, each of the molecules is paired with its reported GI50.
System: MDA-MB-468
Experiment: Cytotoxicity against human MDA-MB-468 cells after 48 hrs by SRB assay in presence of 3.5 uM 4-(2-chloro-10H-phenoxazin-10-yl)-N,N-diethylbutan-1-amine hydrochloride
Assay type: functional
Details: MDA-MB-468, 48 h
Field: numeric (µM). Do not append units.

Examples from the recorded data:
CN(C)CCNc1ccnc2cc(F)ccc12 = 4.61
CCN(CC)CCCC(C)Nc1ccnc2cc(Cl)ccc12 (stereo not drawn) [CHLOROQUINE PHOSPHATE] = 2.81

Moving on to another molecule below.
Look up GI50: CCCCNc1ccnc2cc(Cl)ccc12 4.3
